Every entry's value here was drawn from PubChem BioAssay (EPA / NIEHS).

- Read-out: ATP-citrate lyase (ACLY), ACLY (gene 47)
- Method: LTEA_HepaRG_ACLY: Life Technologies and Expression Analysis (LTEA) Assay for ATP-citrate lyase (ACLY) using HepaRG (AID 2283466)
- Condition Summary: mRNA level, 48 h; actives raise or lower the signal
The source made the active and inactive calls. The calls were made as follows: active = hit-call score of the fitted dose curve at least 0.9, where 1 is the maximum; inactive = score below 0.9.
Hi! Could you answer with just one of these? class 1 for active, class 0 for inactive

// known answers, use as guide
Input line: // return assay outcome for S=C([S-])NCCNC(=S)[S-].[Mn+2]
Output line: class 1

Input line: Identify the outcome logged in this assay for the compound shown: CCCCCOC(=O)COc1cc(N2C(=O)C3=C(CCCC3)C2=O)c(F)cc1Cl
Output line: class 0

Input line: Which outcome did this test record for the compound CCC(C)OC(=O)N1CCCCC1CCO (stereo not given) ?
Output line: class 0

Input line: Per the records of this test, what outcome belongs to CCCCOCCOCCOCc1cc2c(cc1CCC)OCO2 ?
Output line: class 0

Input line: Check the results log: what was the call for C[C@]12CC[C@@H]3c4ccc(O)cc4C[C@@H](CCCCCCCCCS(=O)CCCC(F)(F)C(F)(F)F)[C@H]3[C@@H]1CC[C@@H]2O (stereo not given in full) ?
Output line: class 0

Input line: What call does the record list for O=C(c1ccccc1)C1CCCCC1 ?
Output line: class 0

Input line: Test call, this compound: C[C@]12C[C@H](O)[C@H]3[C@@H](CCC4=CC(=O)CC[C@@]43C)[C@@H]1CC[C@@H]2C(=O)CO
Output line: class 0

Input line: Field: outcome | Entry: Oc1ccc(C(c2ccc(O)cc2)C(Cl)(Cl)Cl)cc1
Output line: class 1

Input line: Identify the outcome logged in this assay for the compound shown: CCCN(CCC)c1c([N+](=O)[O-])cc(C(F)(F)F)c(N)c1[N+](=O)[O-]
Output line: class 0

API: the following record is the query input.
Input line: I would be grateful if you could indicate the recorded call for CCOC(=O)COc1cc(-n2ncc(C(F)(F)F)c(C)c2=O)c(F)cc1Cl .
Output line: class 0
